# Tested on: #15
# protocol_details: cells
# Set-up: species or system primary ALL patient cells; 3H-thymidine incorporation proliferation assay in primary ALL patient cells
# test_context: 48 h; read-out: YKL-06-101 IC50
quantity_kind: pIC50
pIC50 here: minus log base 10 of the concentration, concentration in moles per litre.

Q: Answer with reported pIC50 of O=C1CCC(N2C(=O)c3cccc(NCCOCCOCCOCCOCCOCCC(=O)N4CCN(c5ccc(-n6c(=O)ccc7cnc8ccc(-c9ccc%10ccncc%10c9)cc8c76)cc5C(F)(F)F)CC4)c3C2=O)C(=O)N1 (stereo not shown) [YKL-06-101]
Ans: 5.00
